tested on: ZEAMX Corn, Field; experiment: Postemergence herbicidal evaluation, ZEAMX; format: in vivo, Zea mays, L. (Sammel-Bezeichnung); conditions: 0.016 kg/ha, postemergence spray, rated about two-three weeks after treatment
Result type: Postemergence herbicidal rating ZEAMX

Record request: Postemergence herbicidal rating ZEAMX value, item COC(=O)COc1ccc(C)cc1-n1nnc2cc(F)c(-n3c(=O)cc(C(F)(F)F)n(C)c3=O)cc21 [Example 34]
7.5

Record request: Postemergence herbicidal rating ZEAMX value, item COc1ccccc1-n1nnc2cc(F)c(-n3c(=O)cc(C(F)(F)F)n(C)c3=O)cc21 [Example 16]
6.0

Record request: Postemergence herbicidal rating ZEAMX value, item COC(=O)C(C)Oc1ccc(C)cc1-n1nnc2cc(F)c(-n3c(=O)cc(C(F)(F)F)n(C)c3=O)cc21 (stereo not drawn) [Example 41]
8.0

Record request: Postemergence herbicidal rating ZEAMX value, item COCc1ccccc1-n1nnc2cc(F)c(-n3c(=O)cc(C(F)(F)F)n(C)c3=O)cc21 [Example 26]
4.0

Record request: Postemergence herbicidal rating ZEAMX value, item Cn1c(C(F)(F)F)cc(=O)n(-c2cc3c(cc2F)nnn3-c2ccc(OCC(=O)O)cc2)c1=O [Example 44]
6.5

Record request: Postemergence herbicidal rating ZEAMX value, item COc1ccc(C)cc1-n1nnc2cc(F)c(-n3c(=O)cc(C(F)(F)F)n(C)c3=O)cc21 [Example 18]
5.5

Record request: Postemergence herbicidal rating ZEAMX value, item Cc1ccc(O)c(-n2nnc3cc(F)c(-n4c(=O)cc(C(F)(F)F)n(C)c4=O)cc32)c1 [Example 31]
3.5

Record request: Postemergence herbicidal rating ZEAMX value, item Cc1ccc(-n2nnc3cc(F)c(-n4c(=O)cc(C(F)(F)F)n(C)c4=O)cc32)cc1 [Example 19]
4.5

Record request: Postemergence herbicidal rating ZEAMX value, item CCc1ccccc1-n1nnc2cc(F)c(-n3c(=O)cc(C(F)(F)F)n(C)c3=O)cc21 [Example 25]
3.5

Record request: Postemergence herbicidal rating ZEAMX value, item Cc1ccc(O)cc1-n1nnc2cc(F)c(-n3c(=O)cc(C(F)(F)F)n(C)c3=O)cc21 [Example 32]
2.5

Record request: Postemergence herbicidal rating ZEAMX value, item COc1ccc(C)c(-n2nnc3cc(F)c(-n4c(=O)cc(C(F)(F)F)n(C)c4=O)cc32)c1 [Example 22]
4.5

Record request: Postemergence herbicidal rating ZEAMX value, item Cc1ccc(-n2nnc3cc(F)c(-n4c(=O)cc(C(F)(F)F)n(C)c4=O)cc32)cc1C [Example 23]
7.0

Record request: Postemergence herbicidal rating ZEAMX value, item CCc1ccc(-n2nnc3cc(F)c(-n4c(=O)cc(C(F)(F)F)n(C)c4=O)cc32)cc1COC [Example 28]
6.0

Record request: Postemergence herbicidal rating ZEAMX value, item COc1ccc(Cl)cc1-n1nnc2cc(F)c(-n3c(=O)cc(C(F)(F)F)n(C)c3=O)cc21 [Example 30]
4.5

Record request: Postemergence herbicidal rating ZEAMX value, item COc1ccc(-n2nnc3cc(F)c(-n4c(=O)cc(C(F)(F)F)n(C)c4=O)cc32)c(C)c1 [Example 24]
3.5

Record request: Postemergence herbicidal rating ZEAMX value, item Cc1ccc(OCC(=O)O)cc1-n1nnc2cc(F)c(-n3c(=O)cc(C(F)(F)F)n(C)c3=O)cc21 [Example 37]
7.5

Record request: Postemergence herbicidal rating ZEAMX value, item CCc1ccc(-n2nnc3cc(F)c(-n4c(=O)cc(C(F)(F)F)n(C)c4=O)cc32)cc1 [Example 17]
5.5

Record request: Postemergence herbicidal rating ZEAMX value, item CC(C)c1ccc(-n2nnc3cc(F)c(-n4c(=O)cc(C(F)(F)F)n(C)c4=O)cc32)cc1 [Example 21]
4.5

----------
system: ORYSAT Rice, Tebonnet; test: Preemergence herbicidal evaluation, ORYSAT; format: in vivo, Oryza sativa, (L.); design: scale not given here; settings: preemergence, rate 0.125 kg/ha
Result type: ORYSAT herbicidal rating

Record request: ORYSAT herbicidal rating value, item `CC(C)c1ccc(-n2nnc3cc(F)c(-n4c(=O)cc(C(F)(F)F)n(C)c4=O)cc32)cc1`
0.0

Record request: ORYSAT herbicidal rating value, item `COC(=O)COc1ccc(C)cc1-n1nnc2cc(F)c(-n3c(=O)cc(C(F)(F)F)n(C)c3=O)cc21`
5.0

Record request: ORYSAT herbicidal rating value, item `COc1ccc(C)c(-n2nnc3cc(F)c(-n4c(=O)cc(C(F)(F)F)n(C)c4=O)cc32)c1`
0.0

Record request: ORYSAT herbicidal rating value, item `CCc1ccc(-n2nnc3cc(F)c(-n4c(=O)cc(C(F)(F)F)n(C)c4=O)cc32)cc1COC`
0.0

Record request: ORYSAT herbicidal rating value, item `COC(=O)COc1ccccc1-n1nnc2cc(F)c(-n3c(=O)cc(C(F)(F)F)n(C)c3=O)cc21`
6.0

Record request: ORYSAT herbicidal rating value, item `Cc1ccc(-n2nnc3cc(F)c(-n4c(=O)cc(C(F)(F)F)n(C)c4=O)cc32)cc1`
2.0

----------
test system: TRZAWR Wheat, Winter, cv Riband; experiment: Postemergence herbicidal evaluation, TRZAWR; format: in vivo, Triticum aestivum; set-up: scale not given here; settings: 0.016 kg/ha, postemergence spray, rated about two-three weeks after treatment
Kindly state Postemergence herbicidal rating TRZAWR for each of the entries shown.
// no unit string in output, number only

Record request: Postemergence herbicidal rating TRZAWR value, item `COCc1ccccc1-n1nnc2cc(F)c(-n3c(=O)cc(C(F)(F)F)n(C)c3=O)cc21`
2.5

Record request: Postemergence herbicidal rating TRZAWR value, item `COc1ccccc1-n1nnc2cc(F)c(-n3c(=O)cc(C(F)(F)F)n(C)c3=O)cc21`
3.0

Record request: Postemergence herbicidal rating TRZAWR value, item `COC(=O)COc1ccccc1-n1nnc2cc(F)c(-n3c(=O)cc(C(F)(F)F)n(C)c3=O)cc21`
3.0

Record request: Postemergence herbicidal rating TRZAWR value, item `CCc1ccccc1-n1nnc2cc(F)c(-n3c(=O)cc(C(F)(F)F)n(C)c3=O)cc21`
2.5

Record request: Postemergence herbicidal rating TRZAWR value, item `Cc1ccc(-n2nnc3cc(F)c(-n4c(=O)cc(C(F)(F)F)n(C)c4=O)cc32)cc1`
3.5

Record request: Postemergence herbicidal rating TRZAWR value, item `COc1ccc(-n2nnc3cc(F)c(-n4c(=O)cc(C(F)(F)F)n(C)c4=O)cc32)cc1`
4.0

Record request: Postemergence herbicidal rating TRZAWR value, item `COC(=O)COc1ccc(C)cc1-n1nnc2cc(F)c(-n3c(=O)cc(C(F)(F)F)n(C)c3=O)cc21`
5.0

Record request: Postemergence herbicidal rating TRZAWR value, item `Cc1ccc(O)cc1-n1nnc2cc(F)c(-n3c(=O)cc(C(F)(F)F)n(C)c3=O)cc21`
2.5

Record request: Postemergence herbicidal rating TRZAWR value, item `COc1ccc(Cl)cc1-n1nnc2cc(F)c(-n3c(=O)cc(C(F)(F)F)n(C)c3=O)cc21`
3.5

----------
system: ECHOG Barnyardgrass; experiment: Preemergence herbicidal evaluation, ECHOG; format: in vivo, Echinochloa crus-galli, (L.) Beau; design: scale not given here; details: preemergence, rate 0.062 kg/ha
Result type: ECHCG herbicidal rating
// no unit string in output, number only

Record request: ECHCG herbicidal rating value, item `COC(=O)COc1ccccc1-n1nnc2cc(F)c(-n3c(=O)cc(C(F)(F)F)n(C)c3=O)cc21`
2.0

Record request: ECHCG herbicidal rating value, item `COc1ccc(C)cc1-n1nnc2cc(F)c(-n3c(=O)cc(C(F)(F)F)n(C)c3=O)cc21`
9.0

Record request: ECHCG herbicidal rating value, item `COCc1ccccc1-n1nnc2cc(F)c(-n3c(=O)cc(C(F)(F)F)n(C)c3=O)cc21`
7.0

Record request: ECHCG herbicidal rating value, item `COc1ccc(C)c(-n2nnc3cc(F)c(-n4c(=O)cc(C(F)(F)F)n(C)c4=O)cc32)c1`
2.0

Record request: ECHCG herbicidal rating value, item `Cc1ccc(O)cc1-n1nnc2cc(F)c(-n3c(=O)cc(C(F)(F)F)n(C)c3=O)cc21`
0.0

Record request: ECHCG herbicidal rating value, item `CCc1ccccc1-n1nnc2cc(F)c(-n3c(=O)cc(C(F)(F)F)n(C)c3=O)cc21`
2.0

----------
Test system: SETVI Foxtail, Green
Assay: Preemergence herbicidal evaluation, SETVI
Format: in vivo, Setaria viridis, (L.) Beau
Conditions: preemergence, rate 0.032 kg/ha
Text: The preemergence herbicidal activity of the test compounds of the present invention is exemplified by the following tests in which the seeds of a variety of monocotyledonous and dicotyledonous plants are separately mixed with potting soil and planted on top of approximately one inch of soil in separate pint cups. […] The treated cups are then placed on greenhouse benches, watered and cared for in accordance with conventional greenhouse procedures. […]
Result type: SETVI herbicidal rating
// no unit string in output, number only

Return SETVI herbicidal rating measured with SETVI Foxtail, Green given this molecule: COC(=O)COc1ccc(C)cc1-n1nnc2cc(F)c(-n3c(=O)cc(C(F)(F)F)n(C)c3=O)cc21 [Example 34]
6.0

Return SETVI herbicidal rating measured with SETVI Foxtail, Green given this molecule: CC(C)c1ccc(-n2nnc3cc(F)c(-n4c(=O)cc(C(F)(F)F)n(C)c4=O)cc32)cc1 [Example 21]
2.0

Return SETVI herbicidal rating measured with SETVI Foxtail, Green given this molecule: CCc1ccc(-n2nnc3cc(F)c(-n4c(=O)cc(C(F)(F)F)n(C)c4=O)cc32)cc1COC [Example 28]
2.0

Return SETVI herbicidal rating measured with SETVI Foxtail, Green given this molecule: COC(=O)C(C)Oc1ccc(C)cc1-n1nnc2cc(F)c(-n3c(=O)cc(C(F)(F)F)n(C)c3=O)cc21 (stereo not drawn) [Example 41]
0.0

Return SETVI herbicidal rating measured with SETVI Foxtail, Green given this molecule: CCc1ccc(-n2nnc3cc(F)c(-n4c(=O)cc(C(F)(F)F)n(C)c4=O)cc32)cc1 [Example 17]
7.3

Return SETVI herbicidal rating measured with SETVI Foxtail, Green given this molecule: COc1ccccc1-n1nnc2cc(F)c(-n3c(=O)cc(C(F)(F)F)n(C)c3=O)cc21 [Example 16]
9.0
